Source of measurements: PubChem BioAssay (NCI)

system: BT-549 breast; assay: NCI tumour cell line growth inhibition, 48 h
Known TGI of a selection of compounds
Give the value in µM but do not write µM after it.

Solved entries:
| COMPOUND | UNIT_NAME | TGI |
| --- | --- | --- |
| CC1(C)CC2=NO[Se]3=C2C(=NO3)C1 | µM | 7.28 |
| CN(c1ccccc1)c1c2ccccc2nc2[nH]c3ccccc3c12 | µM | 13.1 |
| OCc1ccc(N2CCc3ccc(F)cc3C2)cc1Cl | µM | 29.3 |
| CC1C(OS(=O)(=O)c2ccc3[nH]c(=S)sc3c2)CC2C3(C)CCC2(C(C)C(=O)O)C(O)C13 (centres undefined) | µM | 66 |
| COC(=O)c1sc(=S)sc1SCc1cccc(CSc2sc(=S)sc2C(=O)OC)c1 | µM | 94.1 |
| O=S(=O)(Nc1ccccc1)c1ccc(C2CC3(Cl)C(Cl)=C(Cl)C2(Cl)C3(Cl)Cl)cc1 (centres undefined) | µM | 5.85 |
| O=C1NC(=O)N(S(=O)(=O)c2cc(C(=O)Nc3ccc(Cl)cc3)c(Cl)cc2S)S(=O)(=O)N1 | µM | 45.7 |
| CCOC(=O)c1c(C)n(-c2ccc(C)cc2)c(=O)c2ccccc2c(=O)c2c(=O)ccc(=O)c1=2 | µM | 57.9 |
| C=C(C)c1nc(Oc2ccccc2)nc(Oc2ccccc2)n1 | µM | 13.1 |
| c1cc(OCCCCCOc2cccc(-c3nc4ccccc4[nH]3)c2)cc(-c2nc3ccccc3[nH]2)c1 | µM | 5 |

For CC[C@]12C=CCN3CC[C@@]4(c5ccc(OC)cc5N(C)[C@H]4[C@@](O)(C(=O)OC)[C@@H]1OC(=O)CCCN1CCN(CCCC(=O)O[C@@H]4[C@]5(CC)C=CCN6CC[C@@]7(c8ccc(OC)cc8N(C)[C@H]7[C@@]4(O)C(=O)OC)[C@@H]65)CC1)[C@@H]32 , what is its reported TGI?
3.33

Any idea what TGI was measured for CC1(c2ccc(Cl)cc2)C=C(c2ccc(Cl)cc2)C(C#N)=C(C(C#N)C#N)N1 (centres undefined) ?
43.3

Given the compound O=C1[C@H](Cc2ccc(O)cc2)N2C(=O)CCN(C(=O)NCc3ccccc3)[C@H]2CN1Cc1cccc2ccccc12 , what is its reported TGI?
22.6

# input compound: CC1OC(OC2C(OC(=O)[C@]34CCC(C)(C)C[C@H]3C3=CC[C@@H]5[C@@]6(C)CC[C@H](OC7OC(CO)C(O)C(O)C7OC7OC(CO)C(O)C(O)C7O)C(C)(C)[C@@H]6CC[C@@]5(C)[C@]3(C)CC4)OCC(O)C2O)C(O)C(O)C1OC1OCC(O)C(O)C1O (some centres undefined) ; wanted: its TGI
23.7

Entry COc1cc2c3c(n(CCCN)c(=O)c2cc1OC)-c1ccc(N)cc1C3=O has what TGI?
8.85

----------
test system: MALME-3M melanoma; assay: NCI tumour cell line growth inhibition, 48 h
# TGI per record follows

Examples with their reported TGI follow.
| COMPOUND | TGI |
| --- | --- |
| O=c1[nH]c2ccccc2c2oc3ccccc3c12 | > 100 µM |
| CCOc1ccc(NC(=O)C(=O)C(/C(=N/N)C(=O)OC)c2nc3ccc([N+](=O)[O-])cc3[nH]c2=O)cc1 (stereo not given) | > 100 µM |
| COC(=O)C1CC(=O)O[C@H]1c1ccc(OC)c(OC)c1 (stereo not given in full) | > 100 µM |
| CN1S(=O)(=O)N(C)P12(N=P(CP(=NP13(N(C)S(=O)(=O)N1C)N(C)S(=O)(=O)N3C)(c1ccccc1)c1ccccc1)(c1ccccc1)c1ccccc1)N(C)S(=O)(=O)N2C | > 100 µM |

Next item in the queue.
Any idea what its TGI is? The compound is Nc1ccc2c(=S)c3ccccc3[nH]c2c1
> 100 µM
